The following molecules were reported with pKi values on Androgen receptor (Homo sapiens, UniProt P10275) in different studies.
Molecular target: Androgen receptor (Homo sapiens, UniProt P10275)
Sequence (P10275 whole entry): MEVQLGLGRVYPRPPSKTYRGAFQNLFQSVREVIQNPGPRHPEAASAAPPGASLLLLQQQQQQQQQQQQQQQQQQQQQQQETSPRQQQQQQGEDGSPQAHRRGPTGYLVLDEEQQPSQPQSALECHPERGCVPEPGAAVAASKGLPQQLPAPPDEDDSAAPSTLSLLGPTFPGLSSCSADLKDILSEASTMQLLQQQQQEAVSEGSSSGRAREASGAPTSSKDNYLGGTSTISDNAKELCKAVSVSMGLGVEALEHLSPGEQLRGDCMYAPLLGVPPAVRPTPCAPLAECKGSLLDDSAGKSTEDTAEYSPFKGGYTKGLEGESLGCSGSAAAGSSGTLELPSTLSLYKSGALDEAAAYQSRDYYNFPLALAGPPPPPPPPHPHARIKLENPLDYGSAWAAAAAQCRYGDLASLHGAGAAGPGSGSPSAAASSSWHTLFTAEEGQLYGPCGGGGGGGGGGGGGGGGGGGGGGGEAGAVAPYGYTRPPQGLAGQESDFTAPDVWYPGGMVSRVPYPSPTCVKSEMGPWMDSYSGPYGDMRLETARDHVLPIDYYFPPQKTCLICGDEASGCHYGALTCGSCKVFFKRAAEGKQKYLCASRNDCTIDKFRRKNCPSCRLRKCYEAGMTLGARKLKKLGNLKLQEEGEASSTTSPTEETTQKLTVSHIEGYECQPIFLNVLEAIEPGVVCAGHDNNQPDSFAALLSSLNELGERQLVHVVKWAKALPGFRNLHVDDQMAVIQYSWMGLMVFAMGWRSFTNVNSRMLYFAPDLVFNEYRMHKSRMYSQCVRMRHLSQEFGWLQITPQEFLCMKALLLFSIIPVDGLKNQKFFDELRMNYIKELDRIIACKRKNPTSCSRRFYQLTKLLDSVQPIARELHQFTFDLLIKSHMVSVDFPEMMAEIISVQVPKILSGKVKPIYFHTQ
Just the number, please; pKi means minus log10 of the concentration in mol/L.

Query: Look at this molecule and give its reported pKi. `COc1cc(-c2cn(C(C)C)c3cc(NS(C)(=O)=O)ccc23)ccc1C#N`
Result: 6.31

Query: Look at this molecule and give its reported pKi. `Cn1cc(N(Cc2ccccc2)c2ccc([N+](=O)[O-])cc2)cc1CO`
Result: 6.77

Query: Look at this molecule and give its reported pKi. `C#C[C@]1(O)CC[C@H]2[C@@H]3CCC4=CC(=O)CCC4=C3[C@@H](c3ccc(N(C)CCOCCO[C@H]4CC[C@@]5(C)[C@@H](C4)C[C@@H](O)[C@@H]4[C@@H]5C[C@H](O)[C@]5(C)[C@@H]([C@H](C)CCC(=O)O)CC[C@@H]45)cc3)C[C@@]21C`
Result: 8.48

Query: Look at this molecule and give its reported pKi. `COc1cc(F)ccc1-c1c(CN(C)Cc2ccccc2)[nH]c2c(NS(C)(=O)=O)cc(C(C)C)cc12`
Result: 6.63

Query: Look at this molecule and give its reported pKi. `CCN(CC)C(=O)c1cc(N(Cc2ccccc2)c2ccc([N+](=O)[O-])cc2)cn1C`
Result: 7.00

Query: Look at this molecule and give its reported pKi. `COc1ccc2oc(=O)c3c(ccc4[nH]c(=O)cc(C)c43)c2c1`
Result: 6.21

Query: Look at this molecule and give its reported pKi. `Cc1c[nH]c2c(-c3c(F)cc4c(c3F)/C(=N/OC(C)(C)CO)CC(C)(C)N4)cccc12`
Result: 6.54

Query: Look at this molecule and give its reported pKi. `CCC(CC)(c1ccc(OCC(=O)C(C)(C)C)c(C)c1)c1ccc(OC[C@H](O)CO)c(C)c1`
Result: 5.96

Query: Look at this molecule and give its reported pKi. `COc1cccc2c1-c1ccc3[nH]c(=O)cc(C)c3c1CO2`
Result: 7.23

Query: Look at this molecule and give its reported pKi. `Cn1cc(N(Cc2ccccc2)c2ccccc2[N+](=O)[O-])cc1C(=O)N1CCCC1`
Result: 5.89

---

The following compounds were reported with Ki values on Androgen receptor (Homo sapiens, UniProt P10275) in different studies.
Supply the numeric figure in nM, leaving out any unit text.

Query: Look at this compound and give its reported Ki. `COc1c(O)ccc2c1-c1ccc3c(c1/C(=C/c1cccc(O)c1)O2)C(C)=CC(C)(C)N3`
Result: 910

Query: Look at this compound and give its reported Ki. C=CCC1Oc2cccc(CO)c2-c2ccc3c(c21)C(C)=CC(C)(C)N3 (centres undefined)
Result: 1320

Query: Look at this compound and give its reported Ki. CCC(CC)(c1ccc(NCC(O)CO)c(C)c1)c1ccc(OCC(=O)C(C)(C)C)c(C)c1 (centres undefined)
Result: 1170

Query: Look at this compound and give its reported Ki. `CC(C)(C(=O)Nc1nccs1)[C@@H](c1ccccc1)c1ccc(O)c(F)c1`
Result: 1030

---

Target: Androgen receptor (Homo sapiens, UniProt P10275)
Sequence (P10275 whole entry): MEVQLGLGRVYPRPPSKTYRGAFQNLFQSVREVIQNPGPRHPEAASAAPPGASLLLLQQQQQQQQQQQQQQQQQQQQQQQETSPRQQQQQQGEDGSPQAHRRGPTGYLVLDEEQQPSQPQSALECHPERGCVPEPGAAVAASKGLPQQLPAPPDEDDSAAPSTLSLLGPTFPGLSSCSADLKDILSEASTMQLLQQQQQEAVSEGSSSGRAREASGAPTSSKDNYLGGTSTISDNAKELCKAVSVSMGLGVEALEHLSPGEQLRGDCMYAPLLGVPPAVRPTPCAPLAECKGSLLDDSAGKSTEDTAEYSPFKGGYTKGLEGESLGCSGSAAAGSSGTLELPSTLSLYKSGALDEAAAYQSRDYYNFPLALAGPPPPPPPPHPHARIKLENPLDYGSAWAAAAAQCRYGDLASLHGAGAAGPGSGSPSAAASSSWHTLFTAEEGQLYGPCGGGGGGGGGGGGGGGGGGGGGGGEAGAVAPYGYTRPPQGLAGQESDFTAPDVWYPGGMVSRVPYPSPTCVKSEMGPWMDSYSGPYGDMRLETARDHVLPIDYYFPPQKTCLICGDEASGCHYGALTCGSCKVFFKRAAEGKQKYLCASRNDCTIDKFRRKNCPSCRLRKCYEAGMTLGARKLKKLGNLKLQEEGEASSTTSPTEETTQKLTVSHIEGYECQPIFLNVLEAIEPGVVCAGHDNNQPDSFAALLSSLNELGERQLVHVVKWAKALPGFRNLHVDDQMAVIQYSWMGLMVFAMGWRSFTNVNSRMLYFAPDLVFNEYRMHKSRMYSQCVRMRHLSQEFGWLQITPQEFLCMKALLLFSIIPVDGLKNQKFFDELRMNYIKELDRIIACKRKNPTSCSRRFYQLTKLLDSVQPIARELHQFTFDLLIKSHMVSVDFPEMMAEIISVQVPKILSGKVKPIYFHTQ
The following compounds were reported with Ki values on Androgen receptor (Homo sapiens, UniProt P10275) in different studies.

Query: // fetch Androgen receptor (Homo sapiens, UniProt P10275) Ki for CC1=CC(C)(C)Nc2ccc3c(c21)C(c1ccc(Br)cc1)Oc1ccccc1-3 (stereo not drawn)
Result: > 10 µM

Query: // fetch Androgen receptor (Homo sapiens, UniProt P10275) Ki for `Cc1cc([C@H](c2ccccc2)C(C)(C)C(=O)Nc2nncs2)ccc1O`
Result: > 4 µM

Query: // fetch Androgen receptor (Homo sapiens, UniProt P10275) Ki for `CC(C)(C)NC(=O)NCC(C)(C)[C@@H](c1ccccc1)c1ccc2c(cnn2-c2ccc(F)cc2)c1`
Result: > 5 µM
